The values you see were collected from ChEMBL document CHEMBL6071136.

Assay: Apparent permeability across apical to basolateral side in human Caco-2 cells incubated for 2 hrs by LC-MS/MS analysis
Assay type: ADME, cell-based
Mark class 1 for Papp A→B at 2 h under 0.09 ×10⁻⁶ cm/s, class 0 if at or over.

Example cases with answers are listed next.
Prompt: Please check: Papp A→B at 2 h for CC1(C)COC(=O)[C@@H]2C[C@@H](C[C@@H](C#N)NC(=O)[C@@H]3[C@@H]4[C@H](CN3C(=O)[C@H]1NC(=O)C(F)(F)c1ccc(F)cc1)C4(C)C)C(=O)N2 , strictly under 0.09 ×10⁻⁶ cm/s or not?
Completion: class 0

Prompt: Please check: Papp A→B at 2 h for CC(C)(C)[C@H](NC(=O)C(F)(F)F)C(=O)N1C[C@H]2[C@@H]([C@H]1C(=O)N[C@H](C#N)C[C@@H]1CCNC1=O)C2(C)C , strictly under 0.09 ×10⁻⁶ cm/s or not?
Completion: class 0

Further cases:
Prompt: Please check: Papp A→B at 2 h for CC1(C)CNC(=O)[C@@H]2C[C@H](C[C@@H](C#N)NC(=O)[C@@H]3[C@@H]4[C@H](CN3C(=O)[C@H]1NC(=O)OCc1ccccc1)C4(C)C)C(=O)N2 , strictly under 0.09 ×10⁻⁶ cm/s or not?
Completion: class 1

Prompt: Please check: Papp A→B at 2 h for CC1(C)COC(=O)[C@@H]2C[C@@H](C[C@@H](C#N)NC(=O)[C@@H]3[C@@H]4[C@H](CN3C(=O)[C@H]1NC(=O)C(F)(F)Cc1ccccc1)C4(C)C)C(=O)N2 , strictly under 0.09 ×10⁻⁶ cm/s or not?
Completion: class 1

Prompt: Please check: Papp A→B at 2 h for CN1CC(C)(C)[C@H](NC(=O)OCc2ccccc2)C(=O)N2C[C@H]3[C@@H]([C@H]2C(=O)N[C@H](C#N)C[C@@H]2C[C@H](NC2=O)C1=O)C3(C)C , strictly under 0.09 ×10⁻⁶ cm/s or not?
Completion: class 0
